Assay info: In vitro BBB permeability study (Papp), hCMEC/D3 mono-culture BBB model
Condition details: human, Papp(cm/s), Figure 2N; group Mono; individual replicates
Observable: Papp A→B at 30 min (×10⁻⁶ cm/s)
Give just the numeric value; ×10⁻⁶ cm/s need not be written.

Prompt: # return recorded Papp A→B at 30 min for input O=C1OC2(c3ccc(O)cc3Oc3cc(O)ccc32)c2ccccc21 [fluorescein, fluorescein sodium]
Response: 21.9

* * *

Assay info: In vitro BBB permeability study (Papp), double co-culture with U251 cells (h+U)
Format: in vitro ADME, Homo sapiens
Condition details: human, group h+U, Figure 1D/1E; single biological replicate; read-out: Papp
Observable: Papp A→B at 30 min (×10⁻⁶ cm/s)
Give just the numeric value; ×10⁻⁶ cm/s need not be written.

Prompt: # return recorded Papp A→B at 30 min for input O=C1OC2(c3ccc(O)cc3Oc3cc(O)ccc32)c2ccccc21 [fluorescein, fluorescein sodium]
Response: 28.2

* * *

Assay info: in vitro
Condition details: human, Papp Mean
Observable: Papp A→B at 30 min (×10⁻⁶ cm/s)
Give just the numeric value; ×10⁻⁶ cm/s need not be written.

Prompt: # return recorded Papp A→B at 30 min for input CN(C)CCC=C1c2ccccc2CCc2ccccc21
Response: 14.6

* * *

Assay info: Permeability (Papp) across U251 mono-culture model
Format: in vitro ADME, Homo sapiens
Condition details: human, group U251 mono-culture, Figure 1F; single replicate; read-out: Papp
Observable: Papp A→B at 30 min (nm/s)
Give just the numeric value; nm/s need not be written.

Prompt: # return recorded Papp A→B at 30 min for input O=C1OC2(c3ccc(O)cc3Oc3cc(O)ccc32)c2ccccc21 [fluorescein, fluorescein sodium]
Response: 295

* * *

Assay info: In vitro BBB permeability study (Papp), triple co-culture BBB model
Condition details: human, Papp, Triple group; single replicates; Figure 2T
Observable: Papp A→B at 30 min (×10⁻⁶ cm/s)
Give just the numeric value; ×10⁻⁶ cm/s need not be written.

Prompt: # return recorded Papp A→B at 30 min for input O=C1OC2(c3ccc(O)cc3Oc3cc(O)ccc32)c2ccccc21 [fluorescein, fluorescein sodium]
Response: 21.5

* * *

Assay info: In vitro BBB permeability study (Papp), hCMEC/D3 mono-culture BBB model
Condition details: human, Papp(cm/s), group h, Figure 1D/1E; single biological replicate
Observable: Papp A→B at 30 min
Answer with the figure and its unit, nothing else.

Prompt: # return recorded Papp A→B at 30 min for input O=C1OC2(c3ccc(O)cc3Oc3cc(O)ccc32)c2ccccc21 [fluorescein, fluorescein sodium]
Response: 31.7 ×10⁻⁶ cm/s

* * *

Tested on: hCMEC/D3 mono-culture BBB model
Assay info: In vitro BBB permeability study (Papp), hCMEC/D3 mono-culture BBB model
Condition details: read-out: Papp Mean; Mono-culture BBB Model; mean of 4 replicates
Observable: Papp A→B (×10⁻⁶ cm/s)
Give just the numeric value; ×10⁻⁶ cm/s need not be written.

Prompt: Lab note: record Papp A→B of CC(NC(C)(C)C)C(=O)c1cccc(Cl)c1 (stereo not shown) [Buproprion] tested on hCMEC/D3 mono-culture BBB model.
Response: 15.2

* * *

Assay info: in vitro
Condition details: human, Papp Mean
Observable: Papp A→B at 30 min (nm/s)
Give just the numeric value; nm/s need not be written.

# example entries with known answers
1. CCN(CC)CCNC(=O)c1cc(Cl)c(N)cc1OC [Metoclopramide] :: 141
2. CN(C)CCC=C1c2ccccc2COc2ccccc21 [Doxepin] :: 169

Here is another compound to look at.
Prompt: # return recorded Papp A→B at 30 min for input CN(C)CCC=C1c2ccccc2CCc2ccccc21 [Amitriptyline]
Response: 152

Reference source: paper PMC11524583
